Experiment: cytotoxicity assay (percent viability of HEp-2 cells, Cell Titer-Glo)
Settings: human, HEp-2 cells
Readout name: CC50 at 6 days

Tell me its CC50 at 6 days given "Cc1ccc(-c2csc3ncn(Cc4cc(=O)oc5cc(Br)ccc45)c(=O)c23)cc1" as the entry.
> 50 µM

Please report the measured CC50 at 6 days for "Cc1cc(C)cc(C(=O)Nc2cccc(NC(=O)c3ccccc3C)c2)c1"
> 25 µg/mL

Indicate the recorded CC50 at 6 days value for this compound: "Cc1cc(C)cc(NC(=O)c2cccc(NC(=O)c3ccco3)c2)c1"
> 25 µg/mL

Please list CC50 at 6 days recorded for the compound "COCc1cc(C)nc(SCC(=O)Nc2ccccc2N2CCOCC2)c1C#N"
> 25 µg/mL

Entry "CNc1ncnc2c1ncn2[C@@H]1C[C@H](CO)[C@H](O)[C@@H]1O" needs its CC50 at 6 days filled in; supply it.
> 50 µM

Answer with reported CC50 at 6 days of "Cc1ccn2cc(-c3cccc(NS(=O)(=O)c4ccccc4)c3)nc2c1"
> 25 µg/mL

Give CC50 at 6 days for "Nc1ccc2oc(-c3cc(F)c(F)cc3Cl)nc2c1"
> 25 µg/mL

Using known records, supply CC50 at 6 days for "Cc1ccc(N(CCCCN2C(=O)c3ccccc3C2=O)C(=O)c2cccc([N+](=O)[O-])c2)cc1"
> 25 µg/mL

Please report the measured CC50 at 6 days for "NC(=O)c1ncn([C@@H]2O[C@H](CO)[C@@H](O)[C@H]2O)n1"
> 50 µM

Give a short answer stating reported CC50 at 6 days for "O=C(N1CCCC1)N1c2ccccc2CCc2ccccc21" .
> 25 µg/mL

Tell us which CC50 at 6 days value is on record for CCCSC1=C(C#N)C(c2ccco2)C(C(=O)Nc2ccccc2)=C(C)N1 (stereo not drawn)
> 25 µg/mL

Fill in CC50 at 6 days for record "O=C(Nc1c(F)cc(F)cc1Br)c1ccc(Cl)s1"
> 25 µg/mL

Give CC50 at 6 days for the following compound: CCC(Oc1ccc(-c2ccc(C)cc2)cc1)C(=O)OC (stereo not drawn)
> 25 µg/mL

Could you please provide reported CC50 at 6 days for "O=S(=O)(O)c1cc(/N=N/c2cc(S(=O)(=O)O)c3cccnc3c2O)ccc1/C=C/c1ccc(/N=N/c2cc(S(=O)(=O)O)c3cccnc3c2O)cc1S(=O)(=O)O" ? Thanks!
> 50 µM

Give reported CC50 at 6 days value for "Cc1cnc(NC(=O)c2ccc(Cl)cc2Cl)s1"
> 25 µg/mL

Let me know recorded CC50 at 6 days for "Cc1ccnc(NCc2cc(Br)ccc2O)c1" , thanks.
> 25 µg/mL

State its CC50 at 6 days for this compound: "CCOc1ccc(-c2nnc(Nc3ccc(OC)c(C(=O)NC)c3)c3ccccc23)cc1"
> 25 µg/mL

// fetch CC50 at 6 days given entry "Cc1ccc(N(CCCCN2C(=O)c3ccccc3C2=O)C(=O)c2cccc(C)c2)cc1"
> 25 µg/mL
